The compounds listed here are annotated with their IC50.
- Test system: Mia-paca
- method.description: MTT growth inhibition assay
- Assay type: cell-based, human
- protocol.conditions: cancer cell, 72 hr, read-out: Growth inhibitory activity (IC50)
endpoint.name: IC50 (nM)

In [3]: df
Out[3]:
                                   compound  target_under_test  value_unit  observed_measurement
0  O=C1C(NCc2ccccc2)=CC2=NCCc3c[nH]c1c32 [Compound 4c]           Mia-paca          nM                   345
1  O=C1C(NCCc2ccccc2)=CC2=NCCc3c[nH]c1c32 [Compound 4d]           Mia-paca          nM                   982

---

- Tested on: MDA-MB-468
- method.description: XTT cytotoxicity assay
- Assay type: cell-based, human
- protocol.conditions: average ± standard deviation of 2-4 independent assays, read-out: Inhibition of Cancer Cell Proliferation (IC50) MDA-MB-468
pIC50: −log10 of the molar value.
The compounds listed here are annotated with their pIC50.
endpoint.name: pIC50

In [3]: df
Out[3]:
                            smiles_notation  observed_measurement
0  Cc1ccc(S(=O)(=O)n2cc3c4c2C(=O)C(NCc2ccccc2)=CC4=NCC3)cc1                  6.00
1  Cc1ccc(S(=O)(=O)n2cc3c4c2C(=O)C(NCCc2ccccc2)=CC4=NCC3)cc1                  6.10
2  O=C1C(NCCc2cc(Br)c(O)c(Br)c2)=CC2=NCCc3c[nH]c1c32                  5.35
3  Cc1ccc(S(=O)(=O)n2cc3c4c2C(=O)C(NCCc2c[nH]c5ccccc25)=CC4=NCC3)cc1                  5.85
4    O=C1C(NCCc2ccccc2)=CC2=NCCc3c[nH]c1c32                  6.52
5            CCNC1=CC2=NCCc3c[nH]c(c32)C1=O                  6.40
6             CNC1=CC2=NCCc3c[nH]c(c32)C1=O                  6.40

---

- Test system: HCT-116
- method.description: XTT cytotoxicity assay
- Type: cell-based, human
- protocol.conditions: Homo sapiens, HCT-116, average ± standard deviation of 2-4 independent assays, read-out: Inhibition of Cancer Cell Proliferation (IC50) HCT-116
pIC50: −log10 of the molar value.

compound	pIC50
COc1cc([C@@H]2c3cc4c(cc3[C@@H](O[C@@H]3O[C@@H]5CO[C@@H](C)O[C@H]5[C@H](O)[C@H]3O)[C@H]3COC(=O)[C@H]23)OCO4)cc(OC)c1O [Etoposide, reference compound]	5.77

---

- target.under.test: topoisomerase II (Homo sapiens)
- Construct: purchased TopoGEN, Inc., Port Orange, Fla
- Sequence (P11388 whole entry): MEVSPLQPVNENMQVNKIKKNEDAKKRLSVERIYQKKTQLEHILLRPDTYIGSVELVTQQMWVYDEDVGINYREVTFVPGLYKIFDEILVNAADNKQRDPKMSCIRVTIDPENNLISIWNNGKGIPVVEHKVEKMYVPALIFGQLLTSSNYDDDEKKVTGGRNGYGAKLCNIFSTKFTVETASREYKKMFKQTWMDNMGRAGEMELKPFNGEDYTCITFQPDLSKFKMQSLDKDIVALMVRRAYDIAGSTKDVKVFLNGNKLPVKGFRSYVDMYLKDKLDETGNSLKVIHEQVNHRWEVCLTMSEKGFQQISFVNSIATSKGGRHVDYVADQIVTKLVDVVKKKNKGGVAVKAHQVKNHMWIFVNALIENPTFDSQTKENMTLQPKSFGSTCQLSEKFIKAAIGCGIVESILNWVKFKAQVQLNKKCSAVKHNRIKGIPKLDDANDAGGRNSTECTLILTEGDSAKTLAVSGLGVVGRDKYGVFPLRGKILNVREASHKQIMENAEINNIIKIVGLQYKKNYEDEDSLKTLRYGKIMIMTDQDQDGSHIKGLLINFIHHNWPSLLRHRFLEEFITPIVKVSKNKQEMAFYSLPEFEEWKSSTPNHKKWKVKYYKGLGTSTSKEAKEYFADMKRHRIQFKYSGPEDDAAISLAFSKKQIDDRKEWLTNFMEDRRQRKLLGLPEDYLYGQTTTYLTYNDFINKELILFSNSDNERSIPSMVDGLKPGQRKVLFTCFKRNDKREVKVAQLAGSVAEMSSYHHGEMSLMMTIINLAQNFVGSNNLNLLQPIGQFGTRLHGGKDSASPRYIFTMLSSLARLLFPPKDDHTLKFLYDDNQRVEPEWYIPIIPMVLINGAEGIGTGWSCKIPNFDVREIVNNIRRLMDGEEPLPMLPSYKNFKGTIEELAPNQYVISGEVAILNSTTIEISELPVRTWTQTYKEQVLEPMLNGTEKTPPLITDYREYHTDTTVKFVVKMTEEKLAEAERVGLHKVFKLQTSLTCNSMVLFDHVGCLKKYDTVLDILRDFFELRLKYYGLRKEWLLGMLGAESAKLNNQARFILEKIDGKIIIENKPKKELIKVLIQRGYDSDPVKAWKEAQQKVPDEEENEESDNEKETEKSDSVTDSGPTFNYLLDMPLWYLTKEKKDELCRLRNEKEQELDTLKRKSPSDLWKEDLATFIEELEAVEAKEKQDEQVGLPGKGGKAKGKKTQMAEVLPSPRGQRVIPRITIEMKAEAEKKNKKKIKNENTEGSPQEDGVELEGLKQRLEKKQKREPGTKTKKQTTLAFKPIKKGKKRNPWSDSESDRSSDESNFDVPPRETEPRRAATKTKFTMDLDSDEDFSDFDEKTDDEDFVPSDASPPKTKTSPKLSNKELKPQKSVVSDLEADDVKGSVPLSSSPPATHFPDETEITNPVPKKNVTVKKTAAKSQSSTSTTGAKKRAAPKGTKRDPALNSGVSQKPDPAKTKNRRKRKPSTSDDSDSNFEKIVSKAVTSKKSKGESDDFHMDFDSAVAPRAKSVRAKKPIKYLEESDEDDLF
- method.description: Topoisomerase II drug screening kit (relaxation of plasmid DNA)
- Type: biochemical
- Design: key: — none; + low; ++ moderate; +++ strong
- protocol.conditions: 100 μM drug compound; topoisomerase II (4U), 500 ng plasmid DNA
- From the text: In order to determine the effect of the makaluvamine derivatives of the present disclosure, the synthesized makaluvamine derivatives were screened for their ability to inhibit topoisomerase II activity in vitro. […] Relaxed DNA was separated using non-ethidium bromide (EtBr) agarose gels, then stained with EtBr and quantified using Kodak Gel Logic Imaging System and Molecular Imaging software (Eastman Kodak Co., Rochester, N.Y.). […]
endpoint.name: Topoisomerase II Inhibition

>>> print(df.to_string())
                                   compound                endpoint_name  observed_measurement
0  COc1cc(NS(C)(=O)=O)ccc1Nc1c2ccccc2nc2ccccc12 [m-AMSA, reference compound]  Topoisomerase II Inhibition                    ++
1  Cc1ccc(S(=O)(=O)n2cc3c4c2C(=O)C(NCc2ccccc2)=CC4=NCC3)cc1 [Compound 7c]  Topoisomerase II Inhibition                   +++
2  O=C1C(NCCc2c[nH]c3ccccc23)=CC2=NCCc3c[nH]c1c32 [Compound 4g]  Topoisomerase II Inhibition                     —
3  O=C1C(NCCc2cc(Br)c(O)c(Br)c2)=CC2=NCCc3c[nH]c1c32 [Compound 4f]  Topoisomerase II Inhibition                   +++
4  CCNC1=CC2=NCCc3c[nH]c(c32)C1=O [Compound 4b]  Topoisomerase II Inhibition                     —
5  O=C1C(NCCc2ccccc2)=CC2=NCCc3c[nH]c1c32 [Compound 4d]  Topoisomerase II Inhibition                     +
6  O=C1C(NCc2ccccc2)=CC2=NCCc3c[nH]c1c32 [Compound 4c]  Topoisomerase II Inhibition                    ++
7  CNC1=CC2=NCCc3c[nH]c(c32)C1=O [Compound 4a]  Topoisomerase II Inhibition                     —
